All values here come from BindingDB's records for patent US9388210.

target: Gamma-aminobutyric acid receptor subunit alpha-1/beta-2/gamma-2 (Rattus norvegicus, UniProt P18508+P62813+P63138)
Sequence (P62813 whole entry): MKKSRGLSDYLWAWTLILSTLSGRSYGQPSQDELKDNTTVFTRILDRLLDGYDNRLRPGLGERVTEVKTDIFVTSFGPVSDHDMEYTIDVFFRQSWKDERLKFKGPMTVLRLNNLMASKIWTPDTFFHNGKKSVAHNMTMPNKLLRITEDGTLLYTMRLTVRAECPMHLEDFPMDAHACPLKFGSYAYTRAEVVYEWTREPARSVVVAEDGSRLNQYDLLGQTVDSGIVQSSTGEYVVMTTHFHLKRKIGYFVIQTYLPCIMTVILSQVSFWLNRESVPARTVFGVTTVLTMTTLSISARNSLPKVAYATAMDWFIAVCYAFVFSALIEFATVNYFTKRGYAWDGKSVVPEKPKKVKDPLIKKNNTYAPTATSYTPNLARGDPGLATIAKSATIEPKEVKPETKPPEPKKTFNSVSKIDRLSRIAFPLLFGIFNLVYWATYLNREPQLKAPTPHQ
Sequence (P63138 whole entry): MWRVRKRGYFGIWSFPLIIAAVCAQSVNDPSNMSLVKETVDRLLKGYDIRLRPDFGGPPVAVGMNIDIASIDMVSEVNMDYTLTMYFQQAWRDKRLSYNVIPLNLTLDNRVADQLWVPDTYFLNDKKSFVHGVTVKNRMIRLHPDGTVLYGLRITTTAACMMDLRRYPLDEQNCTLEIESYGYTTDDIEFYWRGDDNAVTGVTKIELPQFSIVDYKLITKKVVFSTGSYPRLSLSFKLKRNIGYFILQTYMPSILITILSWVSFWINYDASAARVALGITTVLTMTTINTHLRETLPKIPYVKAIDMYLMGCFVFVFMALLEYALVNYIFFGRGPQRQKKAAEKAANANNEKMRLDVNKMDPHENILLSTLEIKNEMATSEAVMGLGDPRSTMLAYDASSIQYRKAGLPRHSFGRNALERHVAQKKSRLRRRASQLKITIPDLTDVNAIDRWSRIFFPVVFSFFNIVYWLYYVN
Sequence (P18508 whole entry): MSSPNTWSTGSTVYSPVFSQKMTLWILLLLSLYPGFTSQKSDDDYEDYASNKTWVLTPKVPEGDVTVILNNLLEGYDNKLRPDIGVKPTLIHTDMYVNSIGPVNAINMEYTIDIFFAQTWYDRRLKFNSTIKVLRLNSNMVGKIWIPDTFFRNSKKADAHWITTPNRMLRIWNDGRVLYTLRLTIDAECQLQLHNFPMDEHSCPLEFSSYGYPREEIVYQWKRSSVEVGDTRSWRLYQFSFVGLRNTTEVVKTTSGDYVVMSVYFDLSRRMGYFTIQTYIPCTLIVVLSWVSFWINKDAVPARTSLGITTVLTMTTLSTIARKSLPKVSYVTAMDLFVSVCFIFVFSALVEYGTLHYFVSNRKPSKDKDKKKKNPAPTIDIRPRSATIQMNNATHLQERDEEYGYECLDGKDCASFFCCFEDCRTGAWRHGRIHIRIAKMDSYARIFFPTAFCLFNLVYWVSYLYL
assay-protocol: [35S]TBPS Binding Assay
condition-summary: pH 7.4; 25 °C
# IC50 values compiled below
Field format: number, assumed nM, no unit text.

molecule: C[C@]12CC[C@@H](O)C[C@@H]1CC[C@H]1[C@@H]3CC[C@H](C=O)[C@@]3(C)CC(=O)[C@@H]12 [US9388210, 5b]
value-unit: nM
IC50: 770

Given C[C@]12CC[C@@H](O)C[C@@H]1CC[C@@H]1[C@@H]2C(=O)C[C@]2(C)C(C=O)=CC[C@@H]12 [US9388210, 5a] , state its recorded IC50. 997
